# measured_on: T1, human myostatin (human, UniProt O14793 267-375, biotinylated in selections and radioactive assays (site not stated))
# T1 construct: Phage ELISA used both unbiotinylated and biotinylated myostatin; also called biotinylated human myostatin; myostatin-biotin
# T1 sequence (looked up): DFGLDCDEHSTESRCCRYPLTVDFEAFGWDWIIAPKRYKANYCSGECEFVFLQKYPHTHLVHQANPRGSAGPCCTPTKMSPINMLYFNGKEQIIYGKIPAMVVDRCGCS
# experimental_protocol: radioactive equilibrium binding assay
# Criterion met = B max below 20% (exclusive); Criterion not met = B max at/above 20%

* 39633-D2 (designed binder, group M2-A50) MTIPEIIIKVRGTQVVGSDMTVIVEFTNLMKETLRNVWVHLDGPGVTRPMKKMFSEIRPNSTVQWEEVVRPWVSGHRKLIASMPSLLHLHVYGELDVQIQRRDYKDDDDK | Criterion met

**Query** Is B max strictly under 20% for the entry 45927-E1 (designed binder, group M2-Aext) MTIPEIIIKVRGTQVVGSDMTVIVEFTNPLKETLRNVWVHLDGPGVTRPMKKMFTGILQWSTVQWEEVVRPWVSGHRKLIASMSPHAWWQHHGNFSVYGELDVQIQRRDYKDDDDK ?
**Result** Criterion met

**Query** Now try 39885-C11 (designed binder, group M2-A) MTIPEIIIKVRGTQVVGSDMTVIVEFTNPLKETLRNVWVHLDGPGVTRPMKKMFPAIPMNHKVQWEEVVRPWVSGHRKLIASMINYFYKHVYGELDVQIQRRDYKDDDDK .
**Result** Criterion met

**Query** Another binder to look at: 39633-G5 (designed binder, group M1-A50; V91L) MTIPEIIIKVRGTQVVGSDMTVIVEFTNPFKETLRSVWVHLDGPGVTRPMKKMFSEIRPNSTVQWEEVVRPWVSGHRKLIASMRTQYLIHLYGELDVQIQRRDYKDDDDK
**Result** Criterion not met
